- Tested on: Echinochloa crus-galli (ECHCG)
- assay-method-text: Post-emergence herbicidal activity, glasshouse pot test
- Assay type: in vivo
- Set-up: key: 5=total damage to plant; 0=no damage to plant
- study-conditions: Rate 1000 g/Ha; sprayed after 8 days cultivation; evaluated after 13 days; scale 0-5
experimental-readout: ECHCG damage score, application post-emergence
Please reply with the number alone, leaving off any unit.

COC(C)(C)c1cc(N2C(=O)N(C)C(C)C2O)no1 (centres unmarked) : 5
CC(C)(C)c1cc(N2C(=O)N3CCCCC3C2O)no1 (centres unmarked) : 5
CC(C)(C#N)c1cc(N2C(=O)NCC2O)no1 (centres unmarked) : 3
COC(C)(C)c1cc(N2C(=O)N(C)CC2O)no1 (centres unmarked) : 5
CON1C(=O)N(c2cc(C(C)(C)F)no2)C(O)C1C (centres unmarked) : 5

Pending compound:
Prompt: Could you share which ECHCG damage score, application post-emergence value was measured for CN1CC(O)N(c2cc(C(C)(C)F)on2)C1=O (centres unmarked) ?
Completion: 5

---

- System: Echinochloa crus-galli (ECHCG)
- assay-method-text: Post-emergence herbicidal activity, glasshouse pot test
- Assay type: in vivo
- Set-up: key: 5=total damage to plant; 0=no damage to plant
- study-conditions: Rate 1000 g/Ha; sprayed after 8 days cultivation; evaluated after 13 days; scale 0-5
Each record here notes measured ECHCG damage score, application post-emergence.
Please reply with the number alone, leaving off any unit.

CC(C)(C)c1cc(N2C(=O)N3CCCC3C2O)no1 (centres unmarked) : 5
CON1C(=O)N(c2cc(C(C)(C)F)on2)C(O)C1C (centres unmarked) : 5
C#CCN1CC(O)N(c2cc(C(C)(C)C)on2)C1=O (centres unmarked) : 5
CN1CC(O)N(c2cc(C(C)(C)F)no2)C1=O (centres unmarked) : 5

Prompt: Could you share which ECHCG damage score, application post-emergence value was measured for CC1NC(=O)N(c2cc(C(C)(C)C#N)on2)C1O (centres unmarked) ?
Completion: 4

---

- Test system: Amaranthus retroflexus (AMARE)
- assay-method-text: Pre-emergence herbicidal activity, glasshouse pot test
- Assay type: in vivo
- Parameters: key: 5=total damage to plant; 0=no damage to plant
- study-conditions: Rate 1000 g/Ha; sprayed one day after sowing; evaluated after 13 days; scale 0-5
- Protocol: Seeds of a variety of test species were sown in standard soil in pots. […] After 13 days, the test was evaluated (5=total damage to plant; 0=no damage to plant).
Each record here notes measured AMARE damage score, application pre-emergence.
Please reply with the number alone, leaving off any unit.

Here is how some molecules turned out for AMARE damage score, application pre-emergence.
CC(C)(C)c1cc(N2C(=O)N3CCCCC3C2O)no1 (centres unmarked) : 5
CC(C)(C)c1cc(N2C(=O)N3COCC3C2O)no1 (centres unmarked) : 5
CCOC1C(O)N(c2cc(C(C)(C)F)no2)C(=O)N1C (centres unmarked) : 5
CN1CC(O)N(c2cc(C(C)(C)F)no2)C1=O (centres unmarked) : 5
CON1C(=O)N(c2cc(C(C)(C)F)no2)C(O)C1C (centres unmarked) : 5

Prompt: Lab note: need AMARE damage score, application pre-emergence with Amaranthus retroflexus (AMARE) for entry CC1C(O)N(c2cc(C(C)(C)F)on2)C(=O)N1C (centres unmarked) , please look it up.
Completion: 5

Prompt: Moving on to the next molecule: CN1CC(O)N(c2cc(C(C)(C)F)on2)C1=O (centres unmarked)
Completion: 5

Prompt: Moving on to the next molecule: COCC1C(O)N(c2cc(C(C)(C)OC)on2)C(=O)N1C (centres unmarked)
Completion: 5

Prompt: Moving on to the next molecule: C#CCC1C(O)N(c2cc(C(C)(C)C)on2)C(=O)N1CC#C (centres unmarked)
Completion: 5

Prompt: Moving on to the next molecule: CN1CC(O)N(c2cc(C(C)(C)C#N)on2)C1=O (centres unmarked)
Completion: 5

Prompt: Moving on to the next molecule: CN1CC(O)N(c2cc(C(C)(C)O)on2)C1=O (centres unmarked)
Completion: 5

Prompt: Moving on to the next molecule: CC1NC(=O)N(c2cc(C(C)(C)C#N)on2)C1O (centres unmarked)
Completion: 5
